Where do these numbers come from? They come from patent US11866450B2.

Target: CFTR-mediated chloride transport (Homo sapiens)
Type: cell-based
Details: enteroid cells incubated with test compound 18-24 hours; acute 10 μM forskolin and 300 nM Compound III; % of chloride transport with 3 μM Compound A, 3 μM Compound II and 300 nM acute Compound III triple combination control
Parameter Measured: Max. Activity

Some solved entries appear below for comparison.
CC1(C)CC2CCCn3ccc(n3)S(=O)(=O)NC(=O)c3ccc(-n4ccc(OCCC5(C(F)(F)F)CC5)n4)nc3N1C2 (stereo not drawn)    +++ (+++ is >60%)
CC1(C)C[C@H]2CCCCNc3cccc(n3)S(=O)(=O)NC(=O)c3ccc(-n4cc(OCCC5(C(F)(F)F)CC5)cn4)nc3N1C2 (single isomer, unassigned) [Compound 83]    ++ (++ is 30-60%)
CC1(C)C[C@@H]2CN1c1nc(-n3ccc(OCCC4C5(CC5)C45CC5)n3)ccc1C(=O)NS(=O)(=O)c1cccc(n1)NCCO2 (single isomer, unassigned) [Compound 197]    +++ (+++ is >60%)
CC(C)C(COc1ccn(-c2ccc3c(n2)N2C[C@@H](CC2(C)C)OCCNc2cccc(n2)S(=O)(=O)NC3=O)n1)C(C)C (single isomer, unassigned) [Compound 249]    +++ (+++ is >60%)
CC(C)COc1cc(F)cc(-c2ccc3c(n2)N2C[C@@H](CCCn4ccc(n4)S(=O)(=O)NC3=O)CC2(C)C)c1    ++ (++ is 30-60%)

Could I get Max. Activity for every one of these entries?
1. CC(C)(C)CCN1CCN(c2ccc3c(n2)N2C[C@@H](CCCNc4cccc(n4)S(=O)(=O)NC3=O)CC2(C)C)C1=O
2. CC1(C)CC2CCCCn3cc(cn3)S(=O)(=O)NC(=O)c3ccc(-n4ccc(OCCC5(C(F)(F)F)CC5)n4)nc3N1C2 (stereo not drawn)
3. CC1(C)CC2CCCNc3cccc(n3)S(=N)(=O)NC(=O)c3ccc(-n4ccc(OCCC5(C(F)(F)F)CC5)n4)nc3N1C2 (stereo not drawn) [Compound 263]
4. CC1(C)C[C@@H]2CCCNc3cccc(n3)S(=O)(=O)NC(=O)c3ccc(N4CCN(CC(C)(C)C(F)(F)F)C4=O)nc3N1C2

-- reply
1. +++ (+++ is >60%)
2. ++ (++ is 30-60%)
3. ++ (++ is 30-60%)
4. ++ (++ is 30-60%)

Could I get Max. Activity for every one of these entries?
1. CC1CN(c2ccc3c(n2)N2C[C@@H](CCCNc4cccc(n4)S(=O)(=O)NC3=O)CC2(C)C)C(=O)C1CCC(C)(C)C (stereo partly drawn)
2. CC(C)COc1cc(F)cc(-c2ccc3c(n2)N2C[C@@H](CCCNc4cccc(n4)S(=O)(=O)NC3=O)CC2(C)C)c1

-- reply
1. +++ (+++ is >60%)
2. +++ (+++ is >60%)

====

Target: CFTR-mediated chloride transport (Homo sapiens, UniProt P13569)
Sequence (P13569 whole entry, looked up): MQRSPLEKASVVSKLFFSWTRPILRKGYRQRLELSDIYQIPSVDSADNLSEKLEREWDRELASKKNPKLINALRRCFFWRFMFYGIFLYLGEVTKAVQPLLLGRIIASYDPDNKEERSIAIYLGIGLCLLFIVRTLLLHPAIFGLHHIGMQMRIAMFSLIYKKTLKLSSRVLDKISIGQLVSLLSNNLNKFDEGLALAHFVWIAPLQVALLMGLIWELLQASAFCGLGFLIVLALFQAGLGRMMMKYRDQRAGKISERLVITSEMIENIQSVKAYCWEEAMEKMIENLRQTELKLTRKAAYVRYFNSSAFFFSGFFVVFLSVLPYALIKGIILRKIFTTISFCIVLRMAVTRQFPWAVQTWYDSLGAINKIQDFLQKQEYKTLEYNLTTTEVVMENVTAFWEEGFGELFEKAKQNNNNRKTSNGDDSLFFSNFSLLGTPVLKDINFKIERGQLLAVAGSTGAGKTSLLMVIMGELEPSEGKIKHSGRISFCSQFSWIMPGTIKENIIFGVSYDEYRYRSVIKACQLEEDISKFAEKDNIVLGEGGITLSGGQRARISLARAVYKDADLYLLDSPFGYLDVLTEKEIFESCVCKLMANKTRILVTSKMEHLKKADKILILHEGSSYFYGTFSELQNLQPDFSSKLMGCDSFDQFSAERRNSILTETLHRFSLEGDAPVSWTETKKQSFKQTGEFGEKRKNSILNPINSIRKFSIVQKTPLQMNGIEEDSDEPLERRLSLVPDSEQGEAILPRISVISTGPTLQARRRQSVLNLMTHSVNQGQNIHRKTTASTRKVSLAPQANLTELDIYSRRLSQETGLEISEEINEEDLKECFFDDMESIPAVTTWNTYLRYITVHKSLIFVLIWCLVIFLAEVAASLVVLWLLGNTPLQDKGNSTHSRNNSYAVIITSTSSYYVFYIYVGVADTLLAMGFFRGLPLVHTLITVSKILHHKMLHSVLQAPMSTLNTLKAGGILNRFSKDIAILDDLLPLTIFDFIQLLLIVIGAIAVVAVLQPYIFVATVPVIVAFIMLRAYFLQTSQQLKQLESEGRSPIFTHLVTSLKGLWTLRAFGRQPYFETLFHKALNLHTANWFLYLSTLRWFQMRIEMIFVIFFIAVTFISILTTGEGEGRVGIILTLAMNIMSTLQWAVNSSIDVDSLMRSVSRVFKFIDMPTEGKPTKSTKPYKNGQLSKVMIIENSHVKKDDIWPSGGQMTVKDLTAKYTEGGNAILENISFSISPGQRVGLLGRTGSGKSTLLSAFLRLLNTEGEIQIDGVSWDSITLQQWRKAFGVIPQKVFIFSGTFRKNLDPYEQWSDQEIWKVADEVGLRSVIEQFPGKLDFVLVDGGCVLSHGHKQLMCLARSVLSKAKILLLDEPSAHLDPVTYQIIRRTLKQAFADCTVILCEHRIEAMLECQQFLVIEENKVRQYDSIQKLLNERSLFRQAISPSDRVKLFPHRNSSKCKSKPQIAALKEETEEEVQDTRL
Conditions: enteroid cells incubated with test compound 18-24 hours; acute 10 μM forskolin and 300 nM Compound III
Parameter Measured: EC50

CC1(C)CC[C@H]2CCCNc3cccc(n3)S(=O)(=O)NC(=O)c3ccc(-n4ccc(OCCC(C5CC5)C5CC5)n4)nc3N21 (single isomer, unassigned) [Compound 137]    > 3000 nM
CC1(C)C[C@H]2CCNc3cccc(n3)S(=O)(=O)NC(=O)c3ccc(-n4ccc(OCCC(C5CC5)C5CC5)n4)nc3N1C2 (single isomer, unassigned) [Compound 250]    < 1000 nM
CC1(C)C[C@H]2CCCCOc3ccc(cn3)S(=O)(=O)NC(=O)c3ccc(-n4ccc(OCCC5(C(F)(F)F)CC5)n4)nc3N1C2 (single isomer, unassigned) [Compound 103]    < 1000 nM
C[C@@H]1CC[C@H]2CN(c3nc(-n4ccc(OCCC5(C(F)(F)F)CC5)n4)ccc3C(=O)NS(=O)(=O)c3cccc(n3)N1)C(C)(C)C2 (single isomer, unassigned) [Compound 59]    < 1000 nM
CC1(C)CC[C@H]2CCCCNc3cccc(n3)S(=O)(=O)NC(=O)c3ccc(-n4ccc(OCCC5(C(F)(F)F)CC5)n4)nc3N21 (single isomer, unassigned) [Compound 46]    > 3000 nM
CC1(C)CC2CCCNc3cccc(n3)S(=O)(=O)NC(=O)c3ccc(-n4ccc(OCC5(C(F)(F)F)CC5)n4)nc3N1C2 (racemic)    < 1000 nM
CC1(C)C[C@@H]2CCCNc3cccc(n3)S(=O)(=O)NC(=O)c3ccc(N4CC[C@H](OCCC5(C(F)(F)F)CC5)C4=O)nc3N1C2 (single isomer, unassigned) [Compound 173]    < 1000 nM
CC1(C)C[C@@H]2CCCNc3cccc(n3)S(=O)(=O)NC(=O)c3ccc(N4CC[C@H](OCCC5C6(CC6)C56CC6)C4=O)nc3N1C2 (single isomer, unassigned) [Compound 180]    < 1000 nM

Could I get EC50 for every one of these entries?
1. CC1(C)C[C@H]2CCCn3ccc(n3)S(=O)(=O)NC(=O)c3ccc(N4CC[C@H](OCCC5(C(F)(F)F)CC5)C4=O)nc3N1C2 (single isomer, unassigned) [Compound 192]
2. CC1(C)C[C@@H]2CCCNc3cccc(n3)S(=O)(=O)NC(=O)c3ccc(N4CCC(OCCC5(C(F)(F)F)CC5)C4=O)nc3N1C2 (some centres unmarked)
3. CC(C)C(COc1ccn(-c2ccc3c(n2)N2C[C@@H](CC2(C)C)OCCNc2cccc(n2)S(=O)(=O)NC3=O)n1)C(C)C (single isomer, unassigned) [Compound 249]

-- reply
["< 1000 nM", "< 1000 nM", "< 1000 nM"]
